System: KRas-mediated phosphorylation of ERK in MKN1 cells
METHOD_SUMMARY: Inhibition of KRas-mediated phosphorylation of ERK (Cisbio HTRF pERK), MKN1 cells
Format: cell-based
CONDITION_DETAILS: Homo sapiens, MKN-1
OBSERVATION_TYPE: IC50 (nM)

Some solved cases for reference:
CCc1c(F)ccc2cc(O)cc(-c3ncc4c(N5CCC[C@@](C)(O)C5)nc(OC[C@@]56CCCN5[C@H](COC(=O)NC)CC6)nc4c3F)c12 [Example 706]    9
CCc1c(F)ccc2cc(O)cc(-c3ncc4c(N5CC6CCCC(C6)C5)nc(OC[C@@]56CCCN5C[C@H](F)C6)nc4c3F)c12 [Example 551]    1460
CCc1c(F)ccc2cc(O)cc(-c3ncc4c(N5CCCCC(C#N)C5)nc(OC[C@@]56CCCN5C[C@H](F)C6)nc4c3F)c12 (stereo partly drawn) [Example 547]    16
CCc1c(F)ccc2cc(O)cc(-c3ncc4c(N5CC6CCC(C(=O)N(C)C)(C5)C6(F)F)nc(OC[C@@]56CCCN5C[C@H](F)C6)nc4c3F)c12 (stereo partly drawn) [Example 905]    1140
CCc1c(F)ccc2cc(O)cc(-c3ncc4c(N5CC6CCC(C(=O)NC)(C6)C5)nc(OC[C@@]56CCCN5C[C@H](F)C6)nc4c3F)c12 (stereo partly drawn) [Example 889]    55

[A] CCc1c(F)ccc2cc(O)cc(-c3ncc4c(N5CCC[C@]6(CC[S@+]([O-])C6)C5)nc(OC[C@@]56CCCN5C[C@H](F)C6)nc4c3F)c12 (single isomer, unassigned) [Example 625]
[B] CCc1c(F)ccc2cc(O)cc(-c3ncc4c(N5CCC[C@@](C)(O)C5)nc(OC[C@]56CCCN5[C@H](CNS(=O)(=O)N(C)C)CC6)nc4c3F)c12 [Example 720]
[ask] Between A and B , which one has the lower reported IC50 value? Your choice should be expressed through its label.
[reply] B

[I] C=C1[C@@H]2CC[C@H]1CN(c1nc(OC[C@@]34CCCN3C[C@H](F)C4)nc3c(F)c(-c4cc(O)cc5ccc(F)c(CC)c45)ncc13)C2 [Example 849]
[II] C=C1CN2CC(=C)CC2(COc2nc(N3CCC[C@@](C)(O)C3)c3cnc(-c4cc(O)cc5ccc(F)c(CC)c45)c(F)c3n2)C1 [Example 799]
[ask] Between I and II , which one has the lower reported IC50 value? Your choice should be expressed through its label.
[reply] II
(II: 0.9 nM, I: 189 nM)

[I] CCc1c(F)ccc2cc(O)cc(-c3ncc4c(N5CC6CCC(C5)C6C)nc(OC[C@@]56CCCN5C[C@H](F)C6)nc4c3F)c12 (stereo partly drawn) [Example 862]
[II] C=C1CN2CC(=C)CC2(COc2nc(N3C[C@@H]4C[C@H](C3)[C@H](O)C4)c3cnc(-c4cc(O)cc5ccc(F)c(CC)c45)c(F)c3n2)C1 [Example 796]
[ask] # argmax over IC50 for candidates I and II Your choice should be expressed through its label.
[reply] I

----------
Recorded IC50 by entry
MEASURED_TARGET: KRas^G12V (Homo sapiens, UniProt P01116, G12V)
Construct: Biotinylated KRas (corresponding to amino acids 1-169, produced at Accelegan Inc.); biotin (biotinylated); purchased Accelegan Inc
Sequence (P01116 1-169 isoform P01116-2 G12V): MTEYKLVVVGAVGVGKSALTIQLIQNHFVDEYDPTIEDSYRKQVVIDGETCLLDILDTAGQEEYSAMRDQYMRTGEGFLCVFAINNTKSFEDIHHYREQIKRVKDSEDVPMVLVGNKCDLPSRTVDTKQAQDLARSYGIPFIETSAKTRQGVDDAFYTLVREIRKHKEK
METHOD_SUMMARY: KRas binding assay (TR-FRET tracer displacement), KRas G12V
State just the number; it will be interpreted in nM.

CCc1c(F)ccc2cc(O)cc(-c3ncc4c(N5CCCn6cnnc6C5)nc(OC[C@@]56CCCN5C[C@H](F)C6)nc4c3F)c12    100

// IC50 lookup, molecule = `C[C@@H]1C[C@@H]1c1c(Cl)cc(O)cc1-c1ncc2c(N3CC4CCC(C3)N4)nc(OC[C@@]34CCCN3C/C(=C\F)C4)nc2c1F` , result: 4

----------
MEASURED_TARGET: KRas^G12S (Homo sapiens, UniProt P01116, G12S)
Construct: Biotinylated KRas (corresponding to amino acids 1-169, produced at Accelegan Inc.); biotin (biotinylated); purchased Accelegan Inc
Sequence (P01116 1-169 isoform P01116-2 G12S): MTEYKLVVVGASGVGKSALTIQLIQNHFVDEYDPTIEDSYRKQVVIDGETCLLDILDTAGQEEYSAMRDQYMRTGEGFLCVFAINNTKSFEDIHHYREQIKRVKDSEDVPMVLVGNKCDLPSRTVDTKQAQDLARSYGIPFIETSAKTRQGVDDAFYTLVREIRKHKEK
METHOD_SUMMARY: KRas binding assay (TR-FRET tracer displacement), KRas G12S
CONDITION_DETAILS: TR-FRET tracer displacement, KRas G12S
OBSERVATION_TYPE: IC50

Some solved cases for reference:
CCc1c(F)ccc2cc(O)cc(-c3ncc4c(N5CCC[C@]6(C5)NC(=O)NC6=O)nc(OCC56CCCN5C/C(=C\F)C6)nc4c3F)c12 (stereo partly drawn) [Example 794]    < 2 nM
C=C1CN2CCCC2(COc2nc(N3CCCC4(CNS(=O)(=O)N4)C3)c3cnc(-c4cc(O)cc5ccc(F)c(CC)c45)c(F)c3n2)C1 (stereo not drawn) [Example 940]    < 2 nM

Let's switch to this compound now.
// IC50 lookup, compound = C#Cc1c(F)ccc2cc(O)cc(-c3ncc4c(N5CCC[C@@](C)(O)C5)nc(OC[C@]56CCCN5C/C(=C\F)C6)nc4c3F)c12 [Example 801] , result: < 2 nM

----------
Recorded IC50 by entry
MEASURED_TARGET: KRas^WT (Homo sapiens, UniProt P01116)
Construct: Biotinylated KRas (corresponding to amino acids 1-169, produced at Accelegan Inc.); biotin (biotinylated); purchased Accelegan Inc
Sequence (P01116 1-169 isoform P01116-2): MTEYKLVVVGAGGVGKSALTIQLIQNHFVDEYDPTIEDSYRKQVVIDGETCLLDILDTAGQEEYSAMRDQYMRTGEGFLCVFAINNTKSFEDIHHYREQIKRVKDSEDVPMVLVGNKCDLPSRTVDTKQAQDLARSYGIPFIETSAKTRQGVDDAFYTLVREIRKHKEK
METHOD_SUMMARY: KRas binding assay (TR-FRET tracer displacement), KRas WT
CONDITION_DETAILS: TR-FRET tracer displacement, KRas WT

Some solved cases for reference:
O=S1(=O)NCC2(CCCN(c3nc(OC[C@@]45CCCN4C[C@H](F)C5)nc4c(F)c(-c5c6ccccc6cc6[nH]ncc56)ncc34)C2)N1 (stereo partly drawn) [Example 762]    < 2 nM
CCc1c(F)ccc2cc(O)cc(-c3ncc4c(N5C[C@@H]6C[C@H](C5)[C@H](O)C6)nc(OCC56CCCN5CC(=C(F)F)C6)nc4c3F)c12 (stereo partly drawn) [Example 798]    < 2 nM

Simply: O=C1NC(=O)C2(CCCN(c3nc(OCC45CCCN4CCC5)nc4c(F)c(-c5cc(O)cc(Cl)c5C5CC5)ncc34)C2)N1 (stereo not drawn) [Example 739] , KRas^WT (Homo sapiens, UniProt P01116), IC50 = < 2 nM

----------
MEASURED_TARGET: KRas^G12V (Homo sapiens, UniProt P01116, G12V)
Construct: Biotinylated KRas (corresponding to amino acids 1-169, produced at Accelegan Inc.); biotin (biotinylated); purchased Accelegan Inc
METHOD_SUMMARY: KRas binding assay (TR-FRET tracer displacement), KRas G12V
OBSERVATION_TYPE: IC50 (nM)

CCc1c(F)ccc2cc(O)cc(-c3ncc4c(N5CCCn6nc(S(N)(=O)=O)cc6C5)nc(OC[C@@]56CCCN5C[C@H](F)C6)nc4c3F)c12    1740
CCc1c(F)ccc2cc(O)cc(-c3ncc4c(NC56CCC(C#N)(CC5)CC6)nc(OC[C@@]56CCCN5C[C@H](F)C6)nc4c3F)c12    103
CCc1c(F)ccc2cc(O)cc(-c3ncc4c(N5CC6CCC(C5)C6CC(=O)NC)nc(OC[C@@]56CCCN5C[C@H](F)C6)nc4c3F)c12 (stereo partly shown)    32
CCc1c(F)ccc2cc(O)cc(-c3ncc4c(N5CCCC(N6C(=O)CCC6=O)C5)nc(OC[C@@]56CCCN5C[C@H](F)C6)nc4c3F)c12 (stereo partly shown)    34
CCc1c(F)ccc2cc(O)cc(-c3ncc4c(N5CCCc6ncccc6C5)nc(OC[C@@]56CCCN5C[C@H](F)C6)nc4c3F)c12    6
CCc1c(F)ccc2cc(O)cc(-c3ncc4c(N5CCC[C@@]6(CC[S@+]([O-])C6)C5)nc(OC[C@@]56CCCN5C[C@H](F)C6)nc4c3F)c12 (single isomer, unassigned)    17

[P] CCc1c(F)ccc2cc(O)cc(-c3ncc4c(N5CCC(c6ccc(=O)[nH]n6)C5)nc(OC[C@@]56CCCN5C[C@H](F)C6)nc4c3F)c12 (stereo partly shown)
[Q] CCc1c(F)ccc2cc(O)cc(-c3ncc4c(N5CCC[C@@](C)(O)C5)nc(OC[C@@]56CCCN5[C@@H](COC)CC6)nc4c3F)c12
[R] CCc1c(F)ccc2cc(O)cc(-c3ncc4c(N5CC6CCC(COC)(C6)C5)nc(OC[C@@]56CCCN5C[C@H](F)C6)nc4c3F)c12 (stereo partly shown)
[S] CCc1c(F)ccc2cc(O)cc(-c3ncc4c(N5CC6COCC(CO)(C5)C6(F)F)nc(OC[C@@]56CCCN5C[C@H](F)C6)nc4c3F)c12 (stereo partly shown)
[T] Cc1cc2[nH]nnc2c(-c2ncc3c(N4CCCC5(CNC(=O)N5)C4)nc(OCC45CCCN4CCC5)nc3c2F)c1C (stereo not shown)
[ask] Rank entries according to their IC50, from the largest number down. The reply should contain the labels ordered as requested.
[reply] T, S, P, R, Q
